Assay: Absorbance and fluorescence emission spectra (SpectraMax M2)
Format: physicochemical
Settings: MKAC compound library; fluorescence emission maximum
ATTRIBUTE MEASURED: λmax Em. (nm)

compound="CCOc1ccccc1CNC1=[N+]2C(=C(c3ccc(NC(C)=O)cc3)c3ccc(-n4cc(C5CCCC5)nn4)n3[B-]2(F)F)C=C1 [MKAC103-5]" attribute_measured="λmax Em. (nm)" recorded_measurement=562
compound="CC(=O)Nc1ccc(C2=C3C=CC(N4CCc5ccccc5C4)=[N+]3[B-](F)(F)n3c2ccc3-n2cc(C3CCCC3)nn2)cc1 [MKAC66-5]" attribute_measured="λmax Em. (nm)" recorded_measurement=583
compound="CC(=O)Nc1ccc(C2=C3C=CC(NCc4cc(F)cc(F)c4)=[N+]3[B-](F)(F)n3c2ccc3-n2cc(C3CC3)nn2)cc1 [MKAC412-4]" attribute_measured="λmax Em. (nm)" recorded_measurement=562
compound="CCCC(C)c1cn(-c2ccc3n2[B-](F)(F)[N+]2=C(N4CCc5ccccc5C4)C=CC2=C3c2ccc(NC(C)=O)cc2)nn1 (stereo not drawn) [MKAC66-3]" attribute_measured="λmax Em. (nm)" recorded_measurement=583
compound="CC(=O)Nc1ccc(C2=C3C=CC(N(C)Cc4ccccc4)=[N+]3[B-](F)(F)n3c2ccc3-n2cc(CC(C)C)nn2)cc1 [MKAC195-43]" attribute_measured="λmax Em. (nm)" recorded_measurement=580
compound="CCCc1cn(-c2ccc3n2[B-](F)(F)[N+]2=C(NCc4cc(F)cc(F)c4)C=CC2=C3c2ccc(NC(C)=O)cc2)nn1 [MKAC412-48]" attribute_measured="λmax Em. (nm)" recorded_measurement=561
